experimental.context: in 1,4-dioxane, 303.15 K
outcome.measure: solubility (mole fraction)
Numbers only.

The compound CC1=NNC(=O)N(/N=C/c2cccnc2)C1 showed solubility (mole fraction) equal to 0.000728

====

experimental.context: in n-butanol, 288.15 K
outcome.measure: solubility (mole fraction)
Give bare numbers.

solubility (mole fraction) for CC1=NNC(=O)N(/N=C/c2cccnc2)C1 is 0.000229

====

experimental.context: in isopropanol, 313.15 K
outcome.measure: solubility (mole fraction)
One number for each entry.

Recorded solubility (mole fraction) (compound CC1=NNC(=O)N(/N=C/c2cccnc2)C1 ): 0.000625

====

experimental.context: in isopropanol, 308.15 K
outcome.measure: solubility (mole fraction)

Per the record, CC1=NNC(=O)N(/N=C/c2cccnc2)C1 has solubility (mole fraction) of 0.00054
